These measurements were taken from paper PMC6664820.

- target.of.assay: SGLT1 (Homo sapiens)
- Sequence (P13866 whole entry): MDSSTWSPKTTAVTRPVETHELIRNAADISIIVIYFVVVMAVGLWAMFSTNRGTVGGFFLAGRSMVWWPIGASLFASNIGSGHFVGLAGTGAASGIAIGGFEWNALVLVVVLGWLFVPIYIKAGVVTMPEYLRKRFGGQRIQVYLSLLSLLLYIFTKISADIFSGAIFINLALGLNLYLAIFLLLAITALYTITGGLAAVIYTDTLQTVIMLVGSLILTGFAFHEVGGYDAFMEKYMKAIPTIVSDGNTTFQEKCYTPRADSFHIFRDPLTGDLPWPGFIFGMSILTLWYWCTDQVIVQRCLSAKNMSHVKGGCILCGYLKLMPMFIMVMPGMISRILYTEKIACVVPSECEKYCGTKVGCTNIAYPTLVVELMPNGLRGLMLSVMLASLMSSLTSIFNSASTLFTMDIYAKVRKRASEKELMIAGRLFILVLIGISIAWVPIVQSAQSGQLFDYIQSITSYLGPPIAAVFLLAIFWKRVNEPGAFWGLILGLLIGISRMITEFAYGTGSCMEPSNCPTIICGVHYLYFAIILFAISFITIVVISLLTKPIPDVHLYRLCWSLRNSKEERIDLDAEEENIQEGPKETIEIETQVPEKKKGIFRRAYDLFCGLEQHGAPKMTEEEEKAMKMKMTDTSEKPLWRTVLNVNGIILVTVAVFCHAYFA
- protocol.summary: SGLT1 inhibition assay for validation of screening hits and similar compounds (1‐NBD‐glucose uptake, CHO‐hSGLT1 cells)
- Assay type: cell-based
- cond: 1‐NBD‐glucose uptake, CHO‐hSGLT1; mean of n biological replicates, or individual measurements where n=2; read-out: SGLT1‐IC50 Mean
reported.endpoint: IC50

What value of IC50 has been recorded for this entry: CC=C(C)C(=O)OC1c2c(ccc3ccc(=O)oc23)OC(C)(C)C1OC(C)=O (stereo not drawn) [(+)‐pteryxin]
12 µM
